Exercise: for every item that follows, state its recorded MIC.
system: methicillin-resistant S. aureus SA 3202; test: In vitro antibacterial evaluation (MIC), MRSA clinical isolate SA 3202; assay type: cell-based, Staphylococcus aureus; conditions: clinical isolate MRSA SA 3202; read-out: MIC MRSA SA 3202

Suppose we examine the molecule Cc1cc(C)c(NC(=O)c2ccc3ccccc3c2O)c(C)c1 ; what MIC value has been reported?
>838 µM

Suppose we examine the molecule COc1ccc(C(F)(F)F)cc1NC(=O)c1ccc2ccccc2c1O ; what MIC value has been reported?
708 µM

Suppose we examine the molecule COc1ccccc1NC(=O)c1ccc2ccccc2c1O ; what MIC value has been reported?
>873 µM

Suppose we examine the molecule Cc1ccc(NC(=O)c2ccc3ccccc3c2O)cc1 ; what MIC value has been reported?
923 µM

Suppose we examine the molecule COc1ccc(NC(=O)c2ccc3ccccc3c2O)cc1 ; what MIC value has been reported?
>873 µM

---

Exercise: for every item that follows, state its recorded MIC.
system: M. kansasii DSM 44162; assay: In vitro antimycobacterial evaluation (MIC), M. kansasii; type: cell-based, Mycobacterium kansasii; conditions: Mycobacterium kansasii, DSM44162; M. kansasii DSM 44162; read-out: MIC MK
State the answer as a number, implicitly in µM.

Suppose we examine the compound Cc1cc(C)cc(NC(=O)c2ccc3ccccc3c2O)c1 ; what MIC value has been reported?
27.4

Suppose we examine the compound COc1ccc(Br)cc1NC(=O)c1ccc2ccccc2c1O ; what MIC value has been reported?
687

Suppose we examine the compound NNC(=O)c1ccncc1 [INH, isoniazid, reference compound] ; what MIC value has been reported?
233

Suppose we examine the compound COc1cc(F)cc(NC(=O)c2ccc3ccccc3c2O)c1 ; what MIC value has been reported?
12

Suppose we examine the compound Cc1ccc(C)c(NC(=O)c2ccc3ccccc3c2O)c1 ; what MIC value has been reported?
220

---

test system: methicillin-resistant S. aureus 63718; assay: In vitro antibacterial evaluation (MIC), MRSA clinical isolate 63718; type: cell-based, Staphylococcus aureus; conditions: Staphylococcus aureus; clinical isolate MRSA 63718; read-out: MIC MRSA 63718
Exercise: for every item that follows, state its recorded MIC.
State the answer as a number, implicitly in µM.

Suppose we examine the compound Cc1cc(C)cc(NC(=O)c2ccc3ccccc3c2O)c1 [Compound 13] ; what MIC value has been reported?
6.85

Suppose we examine the compound COc1cc(F)cc(NC(=O)c2ccc3ccccc3c2O)c1 [Compound 23] ; what MIC value has been reported?
3.21

Suppose we examine the compound COc1ccc(Br)cc1NC(=O)c1ccc2ccccc2c1O [Compound 20] ; what MIC value has been reported?
687

Suppose we examine the compound Cc1ccc(C)c(NC(=O)c2ccc3ccccc3c2O)c1 [Compound 11] ; what MIC value has been reported?
27.5

Suppose we examine the compound CC1(C)S[C@@H]2[C@H](NC(=O)[C@H](N)c3ccccc3)C(=O)N2[C@H]1C(=O)O [AMP, ampicillin, reference compound] ; what MIC value has been reported?
45.8

---

test: Lipophilicity determination by HPLC (capacity factor k / calculated log k); assay type: physicochemical; conditions: experimental lipophilicity
Rule: log k below 0.7 gives yes, anything at or above gives no.

For this compound, is log k lower than 0.7? Cc1ccc(C(F)(F)F)cc1NC(=O)c1ccc2ccccc2c1O [Compound 25]
no

For this compound, is log k lower than 0.7? COc1ccc(C)c(NC(=O)c2ccc3ccccc3c2O)c1 [Compound 17]
yes

For this compound, is log k lower than 0.7? COc1ccc(OC)c(NC(=O)c2ccc3ccccc3c2O)c1 [Compound 5]
no

---

experiment: Lipophilicity determination by HPLC (capacity factor k / calculated log k); format: physicochemical; conditions: experimental lipophilicity
Exercise: for every item that follows, state its recorded log k.
Enter a number only.

Suppose we examine the compound COc1ccc(C(F)(F)F)cc1NC(=O)c1ccc2ccccc2c1O [Compound 21] ; what log k value has been reported?
0.9428

Suppose we examine the compound Cc1cc(C)cc(NC(=O)c2ccc3ccccc3c2O)c1 [Compound 13] ; what log k value has been reported?
1.0030

Suppose we examine the compound COc1ccc(C)cc1NC(=O)c1ccc2ccccc2c1O [Compound 15] ; what log k value has been reported?
1.0603

Suppose we examine the compound COc1cc(F)cc(NC(=O)c2ccc3ccccc3c2O)c1 [Compound 23] ; what log k value has been reported?
0.7629

Suppose we examine the compound COc1ccc([N+](=O)[O-])cc1NC(=O)c1ccc2ccccc2c1O [Compound 19] ; what log k value has been reported?
0.4827

Suppose we examine the compound COc1ccc(Br)cc1NC(=O)c1ccc2ccccc2c1O [Compound 20] ; what log k value has been reported?
1.0432

Suppose we examine the compound COc1ccccc1NC(=O)c1ccc2ccccc2c1O [Compound 2] ; what log k value has been reported?
0.8584

Suppose we examine the compound Cc1ccc(NC(=O)c2ccc3ccccc3c2O)cc1 [Compound 10] ; what log k value has been reported?
0.8294

Suppose we examine the compound COc1ccc(Cl)c(NC(=O)c2ccc3ccccc3c2O)c1 [Compound 24] ; what log k value has been reported?
0.8130

Suppose we examine the compound COc1cccc(NC(=O)c2ccc3ccccc3c2O)c1 [Compound 3] ; what log k value has been reported?
0.6713

Suppose we examine the compound COc1cc([N+](=O)[O-])ccc1NC(=O)c1ccc2ccccc2c1O [Compound 18] ; what log k value has been reported?
0.5434

Suppose we examine the compound COc1ccc(NC(=O)c2ccc3ccccc3c2O)cc1C(F)(F)F [Compound 22] ; what log k value has been reported?
0.8915

Suppose we examine the compound Cc1cccc(NC(=O)c2ccc3ccccc3c2O)c1 [Compound 9] ; what log k value has been reported?
0.8235

Suppose we examine the compound Cc1cccc(C)c1NC(=O)c1ccc2ccccc2c1O [Compound 12] ; what log k value has been reported?
0.5990

Suppose we examine the compound COc1cc(NC(=O)c2ccc3ccccc3c2O)cc(OC)c1OC [Compound 7] ; what log k value has been reported?
0.5603

Suppose we examine the compound Cc1ccccc1NC(=O)c1ccc2ccccc2c1O [Compound 8] ; what log k value has been reported?
0.5650

Suppose we examine the compound Cc1cc(C)c(NC(=O)c2ccc3ccccc3c2O)c(C)c1 [Compound 14] ; what log k value has been reported?
0.7477

Suppose we examine the compound COc1ccc(NC(=O)c2ccc3ccccc3c2O)cc1 [Compound 4] ; what log k value has been reported?
0.6284

Suppose we examine the compound COc1cccc(C)c1NC(=O)c1ccc2ccccc2c1O [Compound 16] ; what log k value has been reported?
0.4574

Origin of the recorded values: paper PMC6720605
